Reference for the values: ChEMBL document CHEMBL1149440

Molecular target: Peroxisome proliferator-activated receptor delta (Homo sapiens, UniProt Q03181)
Sequence (Q03181 whole entry): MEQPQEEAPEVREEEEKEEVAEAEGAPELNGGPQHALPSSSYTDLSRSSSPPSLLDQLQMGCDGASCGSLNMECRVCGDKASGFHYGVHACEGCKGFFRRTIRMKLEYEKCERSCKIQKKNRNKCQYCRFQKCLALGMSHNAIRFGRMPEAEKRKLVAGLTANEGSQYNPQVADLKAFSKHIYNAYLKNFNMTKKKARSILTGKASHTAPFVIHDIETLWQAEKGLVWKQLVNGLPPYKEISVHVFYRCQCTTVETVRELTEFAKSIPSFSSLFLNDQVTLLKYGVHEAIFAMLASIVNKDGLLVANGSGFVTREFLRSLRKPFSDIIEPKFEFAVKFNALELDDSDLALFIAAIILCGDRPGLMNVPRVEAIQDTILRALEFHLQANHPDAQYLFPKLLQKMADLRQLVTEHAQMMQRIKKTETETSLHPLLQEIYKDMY
pEC50: −log10 of the molar value.
OBSERVABLE: pEC50

O=C(O)Cn1ccc2ccc(OCCCOc3ccc(C(=O)c4ccc(F)cc4)cc3)cc21 = 5.36
CCCc1cc(C(=O)c2ccc(F)cc2)ccc1OCCCOc1ccc2ccn(CC(=O)O)c2c1 = 5.28
CCCc1c(OCCCOc2ccc3ccn(CC(=O)O)c3c2)ccc2cc(C(=O)c3ccccc3)ccc12 = 5.31
CCCc1cc(C(=O)c2ccc(F)cc2)ccc1OCCCOc1cccc2c1ccn2CC(=O)O = 5.40
O=C(O)Cn1ccc2cc(OCCCOc3ccc4cc(C(=O)c5ccccc5)ccc4c3)ccc21 = 5.25

====

Biological target: Peroxisome proliferator-activated receptor alpha (Homo sapiens, UniProt Q07869)
Sequence (Q07869 whole entry): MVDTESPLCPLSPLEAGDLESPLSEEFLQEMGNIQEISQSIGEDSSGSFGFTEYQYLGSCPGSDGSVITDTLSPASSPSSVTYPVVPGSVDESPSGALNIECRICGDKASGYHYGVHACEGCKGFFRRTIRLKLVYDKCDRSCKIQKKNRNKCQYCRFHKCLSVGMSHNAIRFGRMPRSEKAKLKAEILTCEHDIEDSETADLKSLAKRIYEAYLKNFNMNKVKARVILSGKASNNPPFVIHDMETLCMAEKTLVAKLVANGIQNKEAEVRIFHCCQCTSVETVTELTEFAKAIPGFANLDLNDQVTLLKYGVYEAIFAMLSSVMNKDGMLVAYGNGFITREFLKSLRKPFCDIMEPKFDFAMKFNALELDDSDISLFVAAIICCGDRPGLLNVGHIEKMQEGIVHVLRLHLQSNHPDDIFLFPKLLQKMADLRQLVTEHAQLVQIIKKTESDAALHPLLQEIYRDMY
Recorded EC50, one value per entry.

Examples from the recorded data:
O=C(O)Cn1ccc2c(OCCCOc3ccc(C(=O)c4ccc(F)cc4)cc3)cccc21 = > 10000 nM
O=C(O)Cn1ccc2c(OCCCOc3ccc4cc(C(=O)c5ccccc5)ccc4c3)cccc21 = > 10000 nM
O=C(O)Cn1ccc2cc(OCCCOc3ccc(C(=O)c4ccc(F)cc4)cc3)ccc21 = > 10000 nM

Which measured EC50 value corresponds to "O=C(O)Cn1ccc2cc(OCCCOc3ccc4cc(C(=O)c5ccccc5)ccc4c3)ccc21" ?
270 nM

Which measured EC50 value corresponds to "CCCc1cc(C(=O)c2ccc(F)cc2)ccc1OCCCOc1ccc2ccn(CC(=O)O)c2c1" ?
> 10000 nM

Which measured EC50 value corresponds to "CCCc1c(OCCCOc2ccc3c(ccn3CC(=O)O)c2)ccc2cc(C(=O)c3ccccc3)ccc12" ?
8 nM

Which measured EC50 value corresponds to "O=C(O)Cn1ccc2ccc(OCCCOc3ccc4cc(C(=O)c5ccccc5)ccc4c3)cc21" ?
> 10000 nM

Which measured EC50 value corresponds to "O=C(O)Cn1ccc2ccc(OCCCOc3ccc(C(=O)c4ccc(F)cc4)cc3)cc21" ?
765 nM
